Molecular target: Galectin-8 (Homo sapiens)

item-smiles	Kd (µM)
CC(=O)N[C@H]1[C@H]([C@H](O)[C@H](O)CO)O[C@@](O[C@H]2[C@@H](O)[C@@H](CO)O[C@@H](O[C@H]3[C@H](O)[C@@H](O)[C@H](O)O[C@@H]3CO)[C@@H]2O)(C(=O)O)C[C@@H]1O	2.3
CO[C@@H]1O[C@H](CO)[C@H](O)[C@H](OC(=O)CC(=O)Oc2ccc(F)cc2)[C@H]1O	5.72
CO[C@@H]1O[C@H](CO)[C@H](O)[C@H](OC(=O)CC(=O)Oc2ccccc2)[C@H]1O	12.8

----------
Target: Galectin-8 (Homo sapiens)
Sequence (O00214 whole entry): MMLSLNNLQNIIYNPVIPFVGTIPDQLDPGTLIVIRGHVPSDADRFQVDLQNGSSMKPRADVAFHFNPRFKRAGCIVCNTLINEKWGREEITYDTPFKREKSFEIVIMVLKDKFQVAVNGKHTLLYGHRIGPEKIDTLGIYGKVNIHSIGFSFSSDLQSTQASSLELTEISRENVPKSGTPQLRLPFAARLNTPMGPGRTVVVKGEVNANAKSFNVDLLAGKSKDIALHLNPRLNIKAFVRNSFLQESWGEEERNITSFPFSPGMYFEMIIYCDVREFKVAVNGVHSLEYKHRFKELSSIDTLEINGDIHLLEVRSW
pKd: −log10 of the molar value.
observable: pKd

> print(dat)
                                item.smiles  observable  observed.measurement
1  CO[C@@H]1O[C@H](CO)[C@H](O)[C@H](OC(=O)CC(=O)O)[C@H]1O         pKd                  4.47
2  COC(=O)CC(=O)O[C@H]1[C@@H](O)[C@@H](CO)O[C@@H](OC)[C@@H]1O         pKd                  4.60
3  CO[C@@H]1O[C@H](CO)[C@H](O)[C@H](OC(=O)CC(=O)OCc2ccccc2)[C@H]1O         pKd                  5.04
